Just for reference, ChEMBL document CHEMBL4680121 is where these values come from.

Tested on: Pseudomonas aeruginosa
Assay Text: Antibacterial activity against Pseudomonas aeruginosa NCTC 6749 assessed as bacterial growth inhibition measured after 18 hrs by two-fold serial microdilution method
Format: functional
Catalogue of compounds with associated MIC

Completed entries (count: 3):
{"columns": ["Given Smiles", "MIC"],
 "data": [
  ["COc1ccc(-n2nnnc2Nc2cccc(F)c2)cc1", "> 256 µg/mL"],
  ["COc1ccc(-n2nnnc2Nc2ccc(Cl)cc2)cc1", "> 256 µg/mL"],
  ["COc1ccc(NC(=S)Nc2ccccc2F)cc1", "> 256 µg/mL"]
]}

Please turn your attention to the following entry.
In: Returns the measured MIC for the input compound. Input: COc1ccc(-n2nnnc2Nc2cccc(Br)c2)cc1
Out: > 256 µg/mL

----------
Test system: Staphylococcus epidermidis
Assay Text: Antibacterial activity against Staphylococcus epidermidis ATCC 35984/RP62A assessed as bacterial growth inhibition measured after 18 hrs by two-fold serial microdilution method
Assay type: functional
Metric Name: MIC

Completed entries (count: 5):
{"columns": ["Given Smiles", "MIC"],
 "data": [
  ["COc1ccc(Nc2nnnn2-c2ccccc2F)cc1", "64 µg/mL"],
  ["COc1ccc(Nc2nnnn2-c2ccc(F)cc2)cc1", "128 µg/mL"],
  ["COc1ccc(Nc2nnnn2-c2ccccc2Cl)cc1", "64 µg/mL"],
  ["COc1ccc(-n2nnnc2Nc2ccccc2Cl)cc1", "256 µg/mL"],
  ["COc1ccc(Nc2nnnn2-c2ccc(Cl)cc2)cc1", "256 µg/mL"]
]}

In: # returns recorded MIC (system: Staphylococcus epidermidis) for COc1ccc(NC(S)=Nc2ccc(F)cc2)cc1
Out: > 256 µg/mL

In: # returns recorded MIC (system: Staphylococcus epidermidis) for COc1ccc(NC(=S)Nc2cccc(Cl)c2)cc1
Out: > 256 µg/mL

In: # returns recorded MIC (system: Staphylococcus epidermidis) for COc1ccc(-n2nnnc2Nc2cccc(F)c2)cc1
Out: 128 µg/mL

In: # returns recorded MIC (system: Staphylococcus epidermidis) for COc1ccc(Nc2nnnn2-c2ccc(Br)cc2)cc1
Out: > 256 µg/mL

In: # returns recorded MIC (system: Staphylococcus epidermidis) for COc1ccc(NC(=S)Nc2ccccc2F)cc1
Out: > 256 µg/mL

In: # returns recorded MIC (system: Staphylococcus epidermidis) for COc1ccc(NC(=S)Nc2ccccc2Br)cc1
Out: > 256 µg/mL

In: # returns recorded MIC (system: Staphylococcus epidermidis) for COc1ccc(NC(=S)Nc2ccccc2Cl)cc1
Out: > 256 µg/mL

In: # returns recorded MIC (system: Staphylococcus epidermidis) for COc1ccc(-n2nnnc2Nc2ccc(Br)cc2)cc1
Out: > 256 µg/mL

In: # returns recorded MIC (system: Staphylococcus epidermidis) for COc1ccc(NC(=S)Nc2ccc(Cl)cc2)cc1
Out: > 256 µg/mL

In: # returns recorded MIC (system: Staphylococcus epidermidis) for COc1ccc(-n2nnnc2Nc2cccc(Cl)c2)cc1
Out: > 256 µg/mL

In: # returns recorded MIC (system: Staphylococcus epidermidis) for COc1ccc(NC(=S)Nc2ccc(Br)cc2)cc1
Out: > 256 µg/mL

----------
Catalogue of compounds with associated MIC
System: Proteus vulgaris
Assay Text: Antibacterial activity against Proteus vulgaris NCTC 4635 assessed as bacterial growth inhibition measured after 18 hrs by two-fold serial microdilution method
Assay type: functional

{"columns": ["Compound", "MIC"],
 "data": [
  ["COc1ccc(Nc2nnnn2-c2ccccc2Br)cc1", "> 256 µg/mL"],
  ["COc1ccc(Nc2nnnn2-c2ccccc2Cl)cc1", "256 µg/mL"],
  ["COc1ccc(Nc2nnnn2-c2ccccc2F)cc1", "256 µg/mL"],
  ["COc1ccc(NC(=S)Nc2cccc(Cl)c2)cc1", "> 256 µg/mL"],
  ["COc1ccc(Nc2nnnn2-c2cccc(Br)c2)cc1", "> 256 µg/mL"],
  ["COc1ccc(Nc2nnnn2-c2ccc(F)cc2)cc1", "256 µg/mL"]
]}

In: # returns recorded MIC (system: Proteus vulgaris) for COc1ccc(Nc2nnnn2-c2cccc(Cl)c2)cc1
Out: > 256 µg/mL

In: # returns recorded MIC (system: Proteus vulgaris) for COc1ccc(NC(=S)Nc2ccccc2F)cc1
Out: > 256 µg/mL

In: # returns recorded MIC (system: Proteus vulgaris) for COc1ccc(NC(=S)Nc2cccc(F)c2)cc1
Out: > 256 µg/mL

In: # returns recorded MIC (system: Proteus vulgaris) for COc1ccc(-n2nnnc2Nc2cccc(Br)c2)cc1
Out: > 256 µg/mL

In: # returns recorded MIC (system: Proteus vulgaris) for COc1ccc(Nc2nnnn2-c2ccc(Cl)cc2)cc1
Out: > 256 µg/mL

In: # returns recorded MIC (system: Proteus vulgaris) for COc1ccc(-n2nnnc2Nc2ccc(Br)cc2)cc1
Out: > 256 µg/mL

In: # returns recorded MIC (system: Proteus vulgaris) for COc1ccc(Nc2nnnn2-c2cccc(F)c2)cc1
Out: > 256 µg/mL

In: # returns recorded MIC (system: Proteus vulgaris) for O=C(O)c1cn(C2CC2)c2cc(N3CCNCC3)c(F)cc2c1=O [CIPROFLOXACIN]
Out: < 0.0625 µg/mL

In: # returns recorded MIC (system: Proteus vulgaris) for COc1ccc(NC(=S)Nc2ccccc2Cl)cc1
Out: > 256 µg/mL

In: # returns recorded MIC (system: Proteus vulgaris) for COc1ccc(-n2nnnc2Nc2cccc(Cl)c2)cc1
Out: > 256 µg/mL

In: # returns recorded MIC (system: Proteus vulgaris) for COc1ccc(Nc2nnnn2-c2ccc(Br)cc2)cc1
Out: > 256 µg/mL

In: # returns recorded MIC (system: Proteus vulgaris) for COc1ccc(-n2nnnc2Nc2cccc(F)c2)cc1
Out: > 256 µg/mL

In: # returns recorded MIC (system: Proteus vulgaris) for COc1ccc(-n2nnnc2Nc2ccccc2Cl)cc1
Out: 64 µg/mL
